Origin of values: patent US20170210813A1

- assay-target: T1, human PDGFRb.hFc (human)
- T1 construct: Soluble dimeric construct with human Fc; also called hPDGFRb.hFc
- protocol-details: SPR, mAb captured, 25 C
I'd appreciate it if you could supply t1/2 values for the items below.
Answers are plain numbers, in h.

Reference set, count: 2
# binder, t1/2, h
measured = [
    ("H4H3102S (antibody, human IgG4, V domains shown, human IgG4 Fc (H4H prefix)) VH: EVQLVESGGDLVHPGRSLRLSCVASGFTFDDYTMHWVRQAPGKGLEWVSAISWNGDNINYAGSVKGRFTISRDNAKNSLYLEMNSLRVEDTAFYYCAKGRGFSFGFNYLGQGTMVTVSS VL: AIRMTQSPSSLSASVGDRVTITCRASQDISNYLAWFQQQPGKAPKSLIYATSSLNSGVPSKFSGSGSGTDFTLTISSLQPEDFATYYCQQYKSYPLTFGGGTKVEIK", 1.63),
    ("H4H3094P (antibody, human IgG4, V domains shown, also called H4H3394P) VH: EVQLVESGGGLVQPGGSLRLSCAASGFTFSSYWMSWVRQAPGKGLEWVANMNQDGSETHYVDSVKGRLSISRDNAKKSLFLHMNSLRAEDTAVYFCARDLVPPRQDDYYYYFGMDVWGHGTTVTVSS VL: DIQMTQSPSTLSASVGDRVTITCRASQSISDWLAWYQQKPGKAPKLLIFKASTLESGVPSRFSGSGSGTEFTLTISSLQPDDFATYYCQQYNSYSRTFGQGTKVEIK", 3.1),
]

Request: Please report t1/2 for the following binder: H4H3096S (antibody, human IgG4, V domains shown, human IgG4 Fc (H4H prefix)) VH: EVQLVQSGGSLVQPGGSLRLSCTASGFTFSSYWMSWVRQAPGKGLEWVANIQQDESEKYYVDSVKGRFSISRDNAKKSLYLQMNSLRAEDTAVYFCARDLVPPRQGDYYHYFGMDVWGQGTLVTVSS VL: AIRMTQSPSTLSASVGDRVTITCRASQSISDWLAWYQQKPGKAPNLLIYKASSLESGVPSRFSGSGSGTEFTLTISGLQPDDFATYYCQQYNSYSRTFGQGTKLEIKR
Result: 0.733
